- Target Entity: pm8, modified CCR8 related peptide (human, sulfated tyrosines at Y15, Y16 and Y17)
- Sequence (peptide, as listed by the source): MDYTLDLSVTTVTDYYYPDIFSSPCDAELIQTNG
- Procedure Summary: ELISA on coated CCR8 peptide (500 ng/mL), OD [cont.]

[
  {
    "Binder": "anti-CCR8 mAb 2-5 (antibody, V domains shown) VH: EVQLQQSGPELVKPGASVKISCKTSGYTFTEYTIHWVKQSHGKSLEWVGGINPDNGNTRYDQKFKGKATLTIDKSSSTAYMELRSLTSEDSAVYYCARVARSSGSGPYAMDYWGQGTSVTVSS VL: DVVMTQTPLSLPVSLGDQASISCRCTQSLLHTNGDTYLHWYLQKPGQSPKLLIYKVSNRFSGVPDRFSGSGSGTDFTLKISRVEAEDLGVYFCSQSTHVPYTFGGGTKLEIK",
    "binding result": "binds"
  },
  {
    "Binder": "anti-CCR8 mAb 2-7 (antibody, V domains shown) VH: QVQLKESGPGLVAPSQSLSITCTVSGFSLTDYRVSWIRQPPGKGLEWLGVIWGGRSTYYNSALKSRLSISKDNSKSQVFLKMNSLQTDDTAMYYCAKQGDGYYALDYWGQGTSVTVSS VL: DVVMTQTPLSLPVSLGDQASISCRSSQSLVHSYGNTYLHWYLQKPGQSPKLLIYKVSNRFSGVPDRFHGSGSGTDFTLKISRVEAEDLGVYFCSQSTHVPPTFGGGTKLEIK",
    "binding result": "binds"
  },
  {
    "Binder": "anti-CCR8 mAb 2-10 (antibody, V domains shown) VH: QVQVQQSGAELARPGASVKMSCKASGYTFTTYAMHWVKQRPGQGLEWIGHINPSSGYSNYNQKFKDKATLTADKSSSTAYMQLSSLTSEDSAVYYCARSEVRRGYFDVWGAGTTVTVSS VL: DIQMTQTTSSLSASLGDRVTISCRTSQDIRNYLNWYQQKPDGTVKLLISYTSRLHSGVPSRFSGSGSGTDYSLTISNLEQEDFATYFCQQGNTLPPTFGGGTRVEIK",
    "binding result": "binds"
  }
]

From: patent US20260167731A1
